Exercise: for every item that follows, state its recorded %Inh.
tested on: ERK8; construct: gene MAPK15; conditions: concentration: 1 μM, replicates: in singlicate; n = 1;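 further: KINOMEscan kinase panel screen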
Numbers only, in %.

Entry N#Cc1ccc(Oc2ccc(Nc3ncnc4cc[nH]c34)cc2Cl)cc1 has what %Inh?
12

Entry CN1c2ccc(-c3ccc(C(=O)NCCO)cc3)cc2-c2[nH]ncc2S1(=O)=O has what %Inh?
12

Entry O=c1cc(N2CCOCC2)nc2n(Cc3cccc(Cl)c3)ccn12 has what %Inh?
38

Entry Nc1nccc2scc(-c3ccc4c(c3)CCN4C(=O)Cc3cc(F)ccc3F)c12 has what %Inh?
14

Entry CN1CCC(n2cnc(-c3ccc(F)cc3)c2-c2ccnc(NC3CCNCC3)n2)CC1 has what %Inh?
0

Entry FC(F)(F)c1cc(Nc2nccc(-c3c(-c4ccc(Cl)cc4)nn4ncccc34)n2)ccc1Cl has what %Inh?
0

Entry c1ccc(-c2ccc3c(-c4ccnc(Nc5ccc6c(c5)OCCO6)n4)cnn3n2)cc1 has what %Inh?
92.7

Entry CCn1c(-c2ccncc2)nc2cnccc21 has what %Inh?
0

# batch size: 2; output %Inh per entry
1. C[C@H]1CC[C@@H](C(=O)Nc2ccccc2)CN1c1cc(-c2ccc3c(N)n[nH]c3c2)nc(N)n1
2. Cn1ccc2ncnc(Nc3ccc(Oc4cccc(Cl)c4)c(Cl)c3)c21

1: 0; 2: 0
